Ref: patent US5866681A

target: thrombin receptor (Homo sapiens)
Construct: washed human platelets are prepared from blood drawn from healthy volunteers; endogenous in cells; host or cells: washed human platelets from healthy volunteers
Sequence (P25116 22-425): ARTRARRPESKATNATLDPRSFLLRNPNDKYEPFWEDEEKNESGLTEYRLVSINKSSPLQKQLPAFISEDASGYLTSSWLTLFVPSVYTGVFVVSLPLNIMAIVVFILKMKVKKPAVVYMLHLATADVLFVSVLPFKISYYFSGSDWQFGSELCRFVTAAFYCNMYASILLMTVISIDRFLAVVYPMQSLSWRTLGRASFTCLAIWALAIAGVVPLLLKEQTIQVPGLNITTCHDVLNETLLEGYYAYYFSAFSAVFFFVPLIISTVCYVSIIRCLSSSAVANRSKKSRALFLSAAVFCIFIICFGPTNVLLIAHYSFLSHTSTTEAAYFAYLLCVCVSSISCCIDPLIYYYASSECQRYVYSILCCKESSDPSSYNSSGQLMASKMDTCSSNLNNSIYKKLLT
assay-explanation: Platelet aggregation assay for thrombin receptor antagonist activity (washed human platelets stimulated with α-thrombin)
Type: cell-based
conditions: washed human platelets, thrombin-mediated aggregation; read-out: IC50 (concentration at which 50% inhibition of platelet aggregation is achieved)
*1 amine or outer side, *2 acyl side, *3 side chain or, on linkers, in order; H or OH if unused. Where a SMILES comes first, the peptide text is derived from it. [ ]: non-standard residue; d: D form. The star is where a group is joined. X25 = CN(Cc1ccc(-c2ccccc2)cc1)[C@@H](Cc1ccccc1)C(=O)*; X3 = CCCCCCCN([C@@H](Cc1ccccc1)C(=O)[*:2])[*:1]; X16 = CCCCCN([C@@H](Cc1ccccc1)C(=O)[*:2])[*:1]; 2Naphthylsulfonyl = O=S(=O)(c1ccc2ccccc2c1)*; Quinoxaline2carbonyl = O=C(c1cnc2ccccc2n1)*; X13 = CN(CC1CCCCC1)[C@@H](Cc1ccccc1)C(=O)*; Quinoline3carbonyl = O=C(c1cnc2ccccc2c1)*; X6 = CCCCCN(CCCCC)[C@@H](Cc1ccccc1)C(=O)*; Butanoyl(2-OPh) = CCC(Oc1ccccc1)C(=O)*; NMeR = CN[C@@H](CCCNC(=N)N)C(=O)O; hArg = N=C(N)NCCCC[C@H](N)C(=O)O; Cha = N[C@@H](CC1CCCCC1)C(=O)O; X21 = CCCCC(Oc1ccccc1)C(=O)*; Orn = NCCC[C@H](N)C(=O)O
readout-type: IC50 (µM)

[[record]]
compound = "CN(CC1CCCCC1)[C@@H](Cc1ccccc1)C(=O)N[C@@H](CC1CCCCC1)C(=O)N[C@@H](CC1CCCCC1)C(=O)N[C@@H](CCCNC(=N)N)C(=O)N[C@@H](CCCCN)C(N)=O [Compound 20] (X13-[Cha][Cha]RK-NH2)"
relation_sign = "="
observed_result = 15

[[record]]
compound = "N=C(N)NCCC[C@H](NC(=O)[C@H](CC1CCCCC1)NC(=O)[C@H](CC1CCCCC1)NC/C=C/c1ccccc1)C(=O)N[C@@H](CCCCN)C(N)=O"
relation_sign = "="
observed_result = 5

[[record]]
compound = "CCCCCCCN[C@@H](Cc1ccccc1)C(=O)N[C@@H](CC1CCCCC1)C(=O)N[C@@H](CC1CCCCC1)C(=O)N[C@@H](CCCNC(=N)N)C(=O)N[C@@H](CCCCN)C(=O)N1CCC[C@H]1C(=O)N[C@@H](CC(N)=O)C(=O)N[C@@H](CC(=O)O)C(=O)N[C@@H](CCCCN)C(N)=O [Compound 3] (H-[X3][Cha][Cha]RKPNDK-NH2)"
relation_sign = "="
observed_result = 10

[[record]]
compound = "CCCCC(Oc1ccccc1)C(=O)N[C@@H](CC1CCCCC1)C(=O)N[C@@H](CC1CCCCC1)C(=O)N[C@@H](CCCNC(=N)N)C(=O)N[C@@H](CCCCN)C(N)=O (some centres unmarked) [Compound 24] (X21-[Cha][Cha]RK-NH2)"
relation_sign = "="
observed_result = 15

[[record]]
compound = "CCCCCN(CCCCC)[C@@H](Cc1ccccc1)C(=O)N[C@@H](CC1CCCCC1)C(=O)N[C@@H](CC1CCCCC1)C(=O)N[C@@H](CCCNC(=N)N)C(=O)N[C@@H](CCCCN)C(N)=O [Compound 21] (X6-[Cha][Cha]RK-NH2)"
relation_sign = "="
observed_result = 10

[[record]]
compound = "CCC(Oc1ccccc1)C(=O)N[C@@H](CC1CCCCC1)C(=O)N[C@@H](CC1CCCCC1)C(=O)N[C@@H](CCCNC(=N)N)C(=O)N[C@@H](CCCN)C(N)=O (some centres unmarked) [Compound 48] ({Butanoyl(2-OPh)}-[Cha][Cha]R[Orn]-NH2)"
relation_sign = "="
observed_result = 10

[[record]]
compound = "CC(COc1ccccc1)N[C@@H](CC1CCCCC1)C(=O)N[C@@H](CC1CCCCC1)C(=O)N[C@@H](CCCNC(=N)N)C(=O)N[C@@H](CCCCN)C(N)=O (some centres unmarked)"
relation_sign = "="
observed_result = 7.5

[[record]]
compound = "CCC(Oc1ccccc1)C(=O)N[C@@H](CC1CCCCC1)C(=O)N[C@@H](CC1CCCCC1)C(=O)NCc1ccncc1 (some centres unmarked)"
relation_sign = ">"
observed_result = 100

[[record]]
compound = "N=C(N)NCCC[C@H](NC(=O)[C@H](CC1CCCCC1)NC(=O)[C@H](CC1CCCCC1)NS(=O)(=O)c1ccc2ccccc2c1)C(=O)N[C@@H](CCCCN)C(N)=O [Compound 38] (2Naphthylsulfonyl-[Cha][Cha]RK-NH2)"
relation_sign = "="
observed_result = 10

[[record]]
compound = "CCC(Oc1ccccc1)C(=O)N[C@@H](CC1CCCCC1)C(=O)N[C@@H](CC1CCCCC1)C(=O)N(C)[C@@H](CCCNC(=N)N)C(=O)N[C@@H](CCCCN)C(N)=O (some centres unmarked) [Compound 53] ({Butanoyl(2-OPh)}-[Cha][Cha][NMeR]K-NH2)"
relation_sign = "="
observed_result = 2

[[record]]
compound = "CCCCCN[C@@H](Cc1ccccc1)C(=O)N[C@H](CC(C)C)C(=O)N[C@@H](CC1CCCCC1)C(=O)N[C@@H](CCCNC(=N)N)C(=O)N[C@@H](CCCCN)C(N)=O [Compound 45] (H-[X16][dL][Cha]RK-NH2)"
relation_sign = "="
observed_result = 5

[[record]]
compound = "N=C(N)NCCC[C@H](NC(=O)[C@H](CC1CCCCC1)NC(=O)[C@H](CC1CCCCC1)NC(=O)c1cnc2ccccc2n1)C(=O)N[C@@H](CCCCN)C(N)=O [Compound 37] (Quinoxaline2carbonyl-[Cha][Cha]RK-NH2)"
relation_sign = ">"
observed_result = 100

[[record]]
compound = "CCC(Oc1ccccc1)C(=O)N[C@@H](CC1CCCCC1)C(=O)N[C@@H](CC1CCCCC1)C(=O)N[C@@H](CCCCNC(=N)N)C(=O)N[C@@H](CCCNC(=N)N)C(N)=O (some centres unmarked) [Compound 55] ({Butanoyl(2-OPh)}-[Cha][Cha][hArg]R-NH2)"
relation_sign = "="
observed_result = 1

[[record]]
compound = "CCC(Oc1ccccc1)C(=O)N[C@@H](CC1CCCCC1)C(=O)N[C@@H](CC1CCCCC1)C(=O)N[C@@H](CCCNC(=N)N)C(=O)N[C@@H](CCCNC(=N)N)C(N)=O (some centres unmarked) [Compound 51] ({Butanoyl(2-OPh)}-[Cha][Cha]RR-NH2)"
relation_sign = "="
observed_result = 2.5

[[record]]
compound = "CN(Cc1ccc(-c2ccccc2)cc1)[C@@H](Cc1ccccc1)C(=O)N[C@@H](CC1CCCCC1)C(=O)N[C@@H](CC1CCCCC1)C(=O)N[C@@H](CCCNC(=N)N)C(=O)N[C@@H](CCCCN)C(N)=O [Compound 18] (X25-[Cha][Cha]RK-NH2)"
relation_sign = "="
observed_result = 5

[[record]]
compound = "CCC(Oc1ccccc1)C(=O)N[C@@H](Cc1ccccc1)C(=O)N[C@@H](CC1CCCCC1)C(=O)N[C@@H](CCCCNC(=N)N)C(=O)N[C@@H](CCCNC(=N)N)C(N)=O (some centres unmarked) [Compound 57] ({Butanoyl(2-OPh)}-F[Cha][hArg]R-NH2)"
relation_sign = "="
observed_result = 2

[[record]]
compound = "N=C(N)NCCC[C@H](NC(=O)[C@H](CC1CCCCC1)NC(=O)[C@H](CC1CCCCC1)NC(=O)c1cnc2ccccc2c1)C(=O)N[C@@H](CCCCN)C(N)=O [Compound 29] (Quinoline3carbonyl-[Cha][Cha]RK-NH2)"
relation_sign = ">"
observed_result = 200

